Target: Integrin alpha-4 (Homo sapiens) (UniProt P13612)
Sequence (P13612 whole entry, looked up): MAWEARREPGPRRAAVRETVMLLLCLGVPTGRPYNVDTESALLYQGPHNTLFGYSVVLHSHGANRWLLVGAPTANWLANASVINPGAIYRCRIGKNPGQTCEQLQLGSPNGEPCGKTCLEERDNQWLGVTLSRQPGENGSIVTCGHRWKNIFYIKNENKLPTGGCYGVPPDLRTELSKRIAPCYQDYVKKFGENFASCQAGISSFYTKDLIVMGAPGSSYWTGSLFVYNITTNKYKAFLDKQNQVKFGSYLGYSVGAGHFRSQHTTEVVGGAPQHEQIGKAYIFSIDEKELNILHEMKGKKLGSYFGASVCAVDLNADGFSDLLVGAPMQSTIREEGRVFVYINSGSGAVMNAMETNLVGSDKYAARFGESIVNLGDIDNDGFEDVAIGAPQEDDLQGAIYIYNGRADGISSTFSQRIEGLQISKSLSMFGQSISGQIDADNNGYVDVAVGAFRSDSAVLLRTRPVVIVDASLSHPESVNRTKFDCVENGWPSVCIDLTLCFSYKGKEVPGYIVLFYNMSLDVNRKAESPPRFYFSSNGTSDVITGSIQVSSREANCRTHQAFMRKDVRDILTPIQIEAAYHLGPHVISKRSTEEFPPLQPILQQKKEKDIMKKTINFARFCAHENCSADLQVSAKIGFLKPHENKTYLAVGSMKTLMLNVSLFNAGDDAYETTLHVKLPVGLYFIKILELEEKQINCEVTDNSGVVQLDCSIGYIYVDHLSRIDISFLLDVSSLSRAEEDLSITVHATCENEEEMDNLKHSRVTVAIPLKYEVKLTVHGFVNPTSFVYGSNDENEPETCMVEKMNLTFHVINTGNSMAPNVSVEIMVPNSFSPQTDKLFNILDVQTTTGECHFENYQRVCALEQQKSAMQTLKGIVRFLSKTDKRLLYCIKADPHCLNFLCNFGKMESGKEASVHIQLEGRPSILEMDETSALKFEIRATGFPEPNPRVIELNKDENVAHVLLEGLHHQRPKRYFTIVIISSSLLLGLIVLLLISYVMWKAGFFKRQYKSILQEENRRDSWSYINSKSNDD
Test: retest of VLA-4 allosteric modulators, confirmation, cell-based, cherry-picked plates, U937, HUTS-21 LIBS antibody (AID 2813);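 also: 0% = ligand without compound and 100% = no ligand background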
Conditions: U937 cells, HUTS-21 LIBS mAb binding, flow cytometry; at 6.7 µM; stronger effect = higher value; LDV ligand present at threefold Kd
Screen size: about 1,300 compounds; about 20 (2%) were called active. Only a sample is shown.
We begin with a simple list: items and their reported inhibition.
PROPERTY MEASURED: inhibition (%)

| MOLECULE | DATA VALUE |
| --- | --- |
| Cc1ccc(/C=C/C(=O)OCC(=O)NCc2ccc(Cl)cc2)o1 | -0.23 |
| O=C(CN1CCN(c2ncccn2)CC1)Nc1ccccc1C(F)(F)F | 4.55 |
| Cc1ccc(S(=O)(=O)N2[C@@H](c3cccc4ccccc34)C(C(=O)O)=C[C@H]2C(C)(C)C)cc1 | 1.98 |
| Cc1ccc(NC(=O)OCc2cncs2)cc1 | 11.7 |
| NC(=O)Cn1c(=O)oc2ccccc21 | -9.51 |
| CCOC(=O)N1CCN(S(=O)(=O)c2ccc3c(c2)C(C)C(=O)N3)CC1 (stereo unspecified) | 0.62 |

---

Target: Integrin alpha-4 (Homo sapiens) (UniProt P13612)
Test: retest of VLA-4 allosteric modulators, confirmation, cell-based, cherry-picked plates, U937, HUTS-21 LIBS antibody (AID 2813);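 also: 0% = ligand without compound and 100% = no ligand background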
Conditions: U937 cells, HUTS-21 LIBS mAb binding, flow cytometry; at 6.7 µM; stronger effect = higher value; LDV ligand present at threefold Kd
The campaign covered roughly 1,300 compounds. About 20 (2%) were called active. Not all results are given here.
PROPERTY MEASURED: inhibition (%)

| COMPOUND | DATA VALUE |
| --- | --- |
| O=C(Cn1c(NCCO)nc2ccccc21)c1ccc(Cl)cc1Cl | 8.37 |
| COc1cccc(-c2cccc(NC(=O)C3CCN(C4CCC4)CC3)c2)c1 | 3.49 |
| CCc1nnc(NC(=O)[C@@H](NC(=O)c2cccc(C)c2)C(C)C)s1 | 3.73 |
| Cc1ccccc1OCCC(=O)OCC(=O)NC(C)c1ccccc1 (stereo unspecified) | 9.45 |
| CC/C(O)=C1\C(=O)CC(C)(C)CC1=NCCc1nc2ccccc2[nH]1 | -5.52 |
| Cc1cccc(NS(=O)(=O)c2ccc(C)c(C(N)=O)c2)c1 | 0.43 |
| COc1ccccc1NC(=O)c1cc(Cl)nnc1Cl | 0 |
| Nc1ccc(Cl)c(S(=O)(=O)Nc2ccccc2Cl)c1 | -5.79 |
| CC(C)(C)NC(=O)NC(=O)COC(=O)Cn1c(C(F)(F)F)nc2ccccc21 | -13.5 |
| CCOC(=O)C1CCCN(S(=O)(=O)c2ccc3c(c2)C(C)(C)C(=O)N3C)C1 (stereo unspecified) | 0.62 |
| COc1ccc(-c2sc3ccccc3c2-c2ccc(OCCN3CCOCC3)cc2)cc1 | 7.43 |

---

Target: Integrin alpha-4 (Homo sapiens)
Assay: retest of VLA-4 allosteric modulators, confirmation, cell-based, cherry-picked plates, U937, HUTS-21 LIBS antibody (AID 2813);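 also: 0% = ligand without compound and 100% = no ligand background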
Details: U937 cells, HUTS-21 LIBS mAb binding, flow cytometry; at 6.7 µM; stronger effect = higher value; LDV ligand present at threefold Kd
In all, about 1,300 compounds went through this assay and about 20 (2%) were called active. These entries were drawn from the full list.
We begin with a simple list: items and their reported inhibition.

| COMPOUND | SYSTEM NAME | inhibition / % |
| --- | --- | --- |
| CC1(C(=O)NCCc2c[nH]c3ccccc23)C=CC2(CCCCC2)N1C(=O)c1ccccc1 (stereo not given) | Integrin alpha-4 (Homo sapiens) | 5.58 |
| Cc1ccnc(NC(=O)c2ccco2)n1 | Integrin alpha-4 (Homo sapiens) | -3.54 |
| CC(=O)NC12CC3CC(C1)CC(C(=O)N1CCN(S(=O)(=O)c4cccs4)CC1)(C3)C2 | Integrin alpha-4 (Homo sapiens) | -0.75 |
| Cc1cc(C(=O)OCC(=O)Nc2ccc(F)c(F)c2)c(C)o1 | Integrin alpha-4 (Homo sapiens) | 0 |
| COc1cccc(-c2sc3ccc(OC)cc3c2-c2ccc(OCCN3CCCCC3)cc2)c1 | Integrin alpha-4 (Homo sapiens) | 3.49 |
| S=C(Nc1cccnc1)Nc1ccccn1 | Integrin alpha-4 (Homo sapiens) | -4.45 |
| Cc1ccc(S(=O)(=O)N2[C@@H](c3ccc(Br)cc3)C(C(=O)O)=C[C@H]2CC2CCCC2)cc1 | Integrin alpha-4 (Homo sapiens) | 4.02 |
| O=C(Nc1cccc(S(=O)(=O)Nc2ccc(Cl)cc2)c1)c1ccc2c(c1)OCCO2 | Integrin alpha-4 (Homo sapiens) | -8.53 |
| CCCN(CC1COc2ccccc2O1)C(=S)Nc1ccc(C)cc1 (stereo not given) | Integrin alpha-4 (Homo sapiens) | -14.3 |
| COc1ccc(C(=O)N2CCC(C(=O)Nc3cccc(C)c3)CC2)cc1OC | Integrin alpha-4 (Homo sapiens) | -6.72 |
